Molecular target: rat-species vanilloid receptor 1 (VR1/TRPV1) (Rattus norvegicus, UniProt O35433)
Construct: endogenous in cells; host or cells: primary cells dissociated from rat dorsal root ganglia (DRG), cultured 2-3 days with NGF
Sequence (O35433 whole entry): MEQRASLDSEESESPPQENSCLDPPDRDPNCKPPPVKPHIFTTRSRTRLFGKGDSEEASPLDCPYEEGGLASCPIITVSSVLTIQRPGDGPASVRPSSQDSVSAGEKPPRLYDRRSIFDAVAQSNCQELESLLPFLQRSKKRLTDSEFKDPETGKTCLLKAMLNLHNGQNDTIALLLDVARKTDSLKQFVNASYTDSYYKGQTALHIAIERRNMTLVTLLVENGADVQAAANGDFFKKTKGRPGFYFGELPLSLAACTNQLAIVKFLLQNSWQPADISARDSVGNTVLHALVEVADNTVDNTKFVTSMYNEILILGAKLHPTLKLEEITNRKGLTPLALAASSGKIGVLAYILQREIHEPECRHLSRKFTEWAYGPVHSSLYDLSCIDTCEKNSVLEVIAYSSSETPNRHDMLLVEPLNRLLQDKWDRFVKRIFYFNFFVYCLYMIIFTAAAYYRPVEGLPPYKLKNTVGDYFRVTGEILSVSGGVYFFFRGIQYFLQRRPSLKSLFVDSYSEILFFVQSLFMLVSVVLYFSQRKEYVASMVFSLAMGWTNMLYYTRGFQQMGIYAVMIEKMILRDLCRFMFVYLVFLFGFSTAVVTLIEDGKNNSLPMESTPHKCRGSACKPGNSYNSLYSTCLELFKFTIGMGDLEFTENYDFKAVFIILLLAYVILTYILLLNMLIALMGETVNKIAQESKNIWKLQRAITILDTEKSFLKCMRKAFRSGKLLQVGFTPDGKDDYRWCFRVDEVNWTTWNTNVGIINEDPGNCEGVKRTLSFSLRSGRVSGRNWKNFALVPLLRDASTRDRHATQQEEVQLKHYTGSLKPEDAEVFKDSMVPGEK
Assay: Functional test on rat VR1, NADA (N-arachidonoyl dopamine) stimulus
Format: cell-based
MEASUREMENT_LABEL: Ki (nM)
Answers are plain numbers, in nM.

Tell me its Ki given CC(C)(C)c1cc(CNC(=O)Nc2ccc3c(c2)CCC3)n(-c2cccc(Cl)c2)n1 [Example 79] as the entry. 39.1

###

Target: rat-species vanilloid receptor 1 (VR1/TRPV1) (Rattus norvegicus, UniProt O35433)
Construct: endogenous in cells; host or cells: primary cells dissociated from rat dorsal root ganglia (DRG), cultured 2-3 days with NGF
Experiment: Functional testing on the vanilloid receptor 1, FLIPR Ca2+ influx in rat DRG cells, capsaicin
Assay type: cell-based
Set-up: key: agonist / partial agonist / no effect: AG=agonist; pAG=partial agonist; NE=no effect
MEASUREMENT_LABEL: Ki (rat) [nM] Cap: agonist / partial agonist / no effect

[[record]]
molecule = "Cc1nc2ccc(C(C)C(=O)NCc3cc(C(F)(F)F)nn3-c3cccc(Cl)c3)cc2s1 (stereo not shown)"
system_tested = "rat-species vanilloid receptor 1 (VR1/TRPV1) (Rattus norvegicus, UniProt O35433)"
result = "pAG"

[[record]]
molecule = "CC(C(=O)NCc1cc(C(C)(C)C)nn1-c1cccc(Cl)c1)c1ccc2c(c1)OCO2 (stereo not shown)"
system_tested = "rat-species vanilloid receptor 1 (VR1/TRPV1) (Rattus norvegicus, UniProt O35433)"
result = "AG"

[[record]]
molecule = "CC(C(=O)NCc1cc(C(F)(F)F)nn1-c1cccc(Cl)c1)c1ccc2cc(O)ccc2c1 (stereo not shown)"
system_tested = "rat-species vanilloid receptor 1 (VR1/TRPV1) (Rattus norvegicus, UniProt O35433)"
result = "pAG"

[[record]]
molecule = "CC(C(=O)NCc1cc(C(C)(C)C)nn1-c1cccc(Cl)c1)c1ccc2c(c1)OCCCO2 (stereo not shown)"
system_tested = "rat-species vanilloid receptor 1 (VR1/TRPV1) (Rattus norvegicus, UniProt O35433)"
result = "AG"


###

Target: hVR1 (Homo sapiens)
Construct: expressed in transfected cells; host or cells: CHO K1 cells (ECACC), stably transfected
Sequence (Q8NER1 whole entry): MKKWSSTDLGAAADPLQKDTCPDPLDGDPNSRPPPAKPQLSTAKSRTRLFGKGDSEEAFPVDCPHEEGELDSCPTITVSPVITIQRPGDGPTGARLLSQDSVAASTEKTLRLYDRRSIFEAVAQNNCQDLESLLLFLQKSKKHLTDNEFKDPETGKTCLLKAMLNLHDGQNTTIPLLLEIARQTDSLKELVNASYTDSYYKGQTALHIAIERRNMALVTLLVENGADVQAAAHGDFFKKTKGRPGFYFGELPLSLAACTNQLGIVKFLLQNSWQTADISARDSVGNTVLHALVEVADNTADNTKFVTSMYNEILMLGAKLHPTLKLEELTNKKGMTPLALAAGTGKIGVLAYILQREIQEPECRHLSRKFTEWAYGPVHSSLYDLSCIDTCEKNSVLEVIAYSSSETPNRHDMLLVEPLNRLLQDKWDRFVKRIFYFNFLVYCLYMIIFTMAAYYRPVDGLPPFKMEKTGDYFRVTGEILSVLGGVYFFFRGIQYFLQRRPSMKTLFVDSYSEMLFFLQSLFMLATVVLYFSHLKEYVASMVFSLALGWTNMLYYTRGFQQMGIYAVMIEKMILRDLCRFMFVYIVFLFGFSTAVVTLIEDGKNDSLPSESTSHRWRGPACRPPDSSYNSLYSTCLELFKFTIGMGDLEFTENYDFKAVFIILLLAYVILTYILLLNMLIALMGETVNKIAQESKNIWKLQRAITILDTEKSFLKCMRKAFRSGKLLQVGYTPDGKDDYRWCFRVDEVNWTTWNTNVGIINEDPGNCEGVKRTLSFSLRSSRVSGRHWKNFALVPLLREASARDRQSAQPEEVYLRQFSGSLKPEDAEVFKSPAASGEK
Assay: Functional test on human VR1, 45° C. stimulus
Type: cell-based, human being
Conditions: read-out: IC50 (human being) [nM], 45° C.
Threshold-based label: IC50 under 700 nM gives Met, IC50 not under 700 nM gives Not met.

Please review the following examples before continuing.
[[record]]
molecule = "CC(C(=O)NCc1cc(C(C)(C)C)nn1-c1cccc(Cl)c1)c1ccc2cccnc2c1 (centres unmarked)"
label_value = "Not met"

[[record]]
molecule = "CC(C)(C)c1cc(CNC(=O)Nc2cccc3cccnc23)n(-c2cccc(Cl)c2)n1"
label_value = "Met"

[[record]]
molecule = "CC(C)(C)c1cc(CNC(=O)Nc2cc(F)cc3[nH]ncc23)n(-c2ccccn2)n1"
label_value = "Not met"

[[record]]
molecule = "CC(C(=O)NCc1cc(C(F)(F)F)nn1-c1cccc(Cl)c1)c1cccc2cc(F)ccc12 (centres unmarked)"
label_value = "Met"

[[record]]
molecule = "O=C(NCc1cc(C(F)(F)F)nn1-c1cccc(Cl)c1)Nc1cccc2cnccc12"
label_value = "Met"

[[record]]
molecule = "CC(C(=O)NCc1cc(C(F)(F)F)nn1-c1cccc(Cl)c1)c1cccc2[nH]ncc12 (centres unmarked)"
label_value = "Met"


In plain terms, does O=C(NCc1cc(C(F)(F)F)nn1-c1cccc(Cl)c1)Nc1ccc2scnc2c1 come in under 700 nM for IC50? Met

The origin of these recorded values is patent US8334315B2.
